Molecular target: T1, TMC-2206
T1 construct: murine IgG1/κ secreted by hybridoma BHA2.1; labelled with Eu-N1-ITC where used as tracer; also called BHA2.1
T1 sequence (VH, as listed by the source, chain 1 of 2): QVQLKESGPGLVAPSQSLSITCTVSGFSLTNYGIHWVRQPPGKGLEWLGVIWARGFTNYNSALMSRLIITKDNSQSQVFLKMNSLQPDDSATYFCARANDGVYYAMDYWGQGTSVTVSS
T1 sequence (VL, as listed by the source, chain 2 of 2): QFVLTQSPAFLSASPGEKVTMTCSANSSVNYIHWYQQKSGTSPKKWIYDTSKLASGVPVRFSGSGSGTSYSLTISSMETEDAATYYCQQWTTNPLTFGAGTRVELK
Experiment: fusion protein competing Eu-TMC-2206 off α2β1-coated plate
I'd be grateful if you could share measured Ki for these entries.
Form entry: value (nM) — number only.

Query: Fill in the blank: the reported Ki of GST-hα2 I domain E195W (other, same construct as m41; reported to lock the I domain in the open conformation; not shown: GST carrier with the pGEX-2TK vector linker at the N end) GSSPDFQLSASFSPATQPCPSLIDVVVVCDESNSIYPWDAVKNFLEKFVQGLDIGPTKTQVGLIQYANNPRVVFNLNTYKTKEEMIVATSQTSQYGGDLTNTFGAIQYARKYAYSAASGGRRSATKVMVVVTDGESHDGSMLKAVIDQCNHDNILRFGIAVLGYLNRNALDTKNLIKEIKAIASIPTERYFFNVSDWAALLEKAGTLGEQIFSIEGTVEFIVTD is ____.
Response: 12.8

Query: Record: GST-hα2 I domain R165D (other, same construct as m41; not shown: GST carrier with the pGEX-2TK vector linker at the N end) GSSPDFQLSASFSPATQPCPSLIDVVVVCDESNSIYPWDAVKNFLEKFVQGLDIGPTKTQVGLIQYANNPRVVFNLNTYKTKEEMIVATSQTSQYGGDLTNTFGAIQYARKYAYSAASGGRRSATKVMVVVTDGESHDGSMLKAVIDQCNHDNILRFGIAVLGYLNDNALDTKNLIKEIKAIASIPTERYFFNVSDEAALLEKAGTLGEQIFSIEGTVEFIVTD
Response: 1990

Query: Record: GST-hα2 I domain Q89H (other, same construct as m41; not shown: GST carrier with the pGEX-2TK vector linker at the N end) GSSPDFQLSASFSPATQPCPSLIDVVVVCDESNSIYPWDAVKNFLEKFVQGLDIGPTKTQVGLIQYANNPRVVFNLNTYKTKEEMIVATSHTSQYGGDLTNTFGAIQYARKYAYSAASGGRRSATKVMVVVTDGESHDGSMLKAVIDQCNHDNILRFGIAVLGYLNRNALDTKNLIKEIKAIASIPTERYFFNVSDEAALLEKAGTLGEQIFSIEGTVEFIVTD
Response: 4.46
